These entries and their values trace back to patent US9765075B2.

Provide the recorded Emax for the entries that follow.
target system: SIRT1 (Homo sapiens)
assay details: Trp mass spectrometry assay (SIRT1 activation)
Assay type: biochemical
assay context: Trp mass spectrometry assay; percent maximum fold activation of SIRT1; read-out: Tryp % Fold Act

compound	Emax
O=C(Nc1ccncc1F)N1c2nc(-c3ccccc3C(F)(F)F)ccc2N2CC[C@H]1C2	≥ 150%
CC(C)(C)OC(=O)NCCCc1ccc(NC(=O)N2c3nc(-c4cccc(C(F)(F)F)c4)ccc3N3CCC[C@H]2C3)cc1-c1cnco1	≥ 150%

State recorded Emax for all listed compounds.
1. Cc1cncc(NC(=O)N2c3nc(-c4cccc(C(F)(F)F)c4)ccc3N3C[C@@H](O)[C@H]2C3)c1
2. O=C(Nc1cccnn1)N1c2nc(C3CCCC(C(F)(F)F)C3)ccc2N2CC[C@H]1C2 (stereo partly shown)
3. Cc1nc(NC(=O)N2c3nc(-c4cccc(C(F)(F)F)c4)ccc3N3CCC2CC3)sc1C
4. O=C(Nc1cnccn1)N1c2nc(-c3cccc(OC(F)(F)F)c3)ccc2N2CC[C@H]1C2
5. O=C(CCCCCNC(=O)c1ccc2c(c1)C(=O)OC21c2ccc(O)cc2Oc2cc(O)ccc21)NCc1ncc(-c2cccc(NC(=O)N3c4nc(-c5cccc(C(F)(F)F)c5)ccc4N4CC[C@H]3C4)c2)o1

Reply:
["≥ 150%", "≥ 150%", "≥ 150%", "≥ 150%", "≥ 150%"]

* * *

target system: UniProt:Q96EB6
assay details: Trp mass spectrometry assay (SIRT1 activation)
Assay type: biochemical
assay context: concentration of test compound that results in 150% activation of SIRT1; Trp peptide substrate
readout type: Tryp AVG EC1.5 (μM)

Some compounds with recorded Tryp AVG EC1.5 (μM):
compound	Tryp AVG EC1.5 (μM)
NC(=O)c1cncc(-c2ccc3c(n2)N(C(=O)Nc2ccccn2)[C@H]2CCN3C2)c1 [Example 371]	B (EC1.5 1-25 μM)
COc1cc(NC(=O)N2c3nc(-c4cccc(Cl)c4)ccc3N3CCC2CC3)ncn1 [Example 522]	B (EC1.5 1-25 μM)
NCc1ccc(NC(=O)N2c3nc(-c4cccc(C(F)(F)F)c4)ccc3N3CCC[C@H]2C3)cc1 [444 (4)]	A (EC1.5<1 μM)
Cc1cncc(-c2ccc3c(n2)N(C(=O)Nc2cccnc2)[C@H]2CCCN3C2)c1 [Example 515]	A (EC1.5<1 μM)
COc1cc(NC(=O)N2c3nc(-c4ccnc(C)c4)ccc3N3CC[C@H]2C3)ncn1 [Example 240]	B (EC1.5 1-25 μM)
COc1cncc(NC(=O)N2c3nc(-c4cccc(N5CCCC5)c4)ccc3N3CC[C@H]2C3)n1 [Example 366]	A (EC1.5<1 μM)

Attention now turns to another entry.
Ask: # value lookup — system UniProt:Q96EB6, readout Tryp AVG EC1.5 (μM), item COc1cccc(-c2ccc3c(n2)N(C(=O)Nc2ccccn2)[C@@H]2CCN3C2)c1 [Example 219]
Reply: B (EC1.5 1-25 μM)

* * *

target system: SIRT1 (Homo sapiens, UniProt Q96EB6)
Sequence (Q96EB6 1-747): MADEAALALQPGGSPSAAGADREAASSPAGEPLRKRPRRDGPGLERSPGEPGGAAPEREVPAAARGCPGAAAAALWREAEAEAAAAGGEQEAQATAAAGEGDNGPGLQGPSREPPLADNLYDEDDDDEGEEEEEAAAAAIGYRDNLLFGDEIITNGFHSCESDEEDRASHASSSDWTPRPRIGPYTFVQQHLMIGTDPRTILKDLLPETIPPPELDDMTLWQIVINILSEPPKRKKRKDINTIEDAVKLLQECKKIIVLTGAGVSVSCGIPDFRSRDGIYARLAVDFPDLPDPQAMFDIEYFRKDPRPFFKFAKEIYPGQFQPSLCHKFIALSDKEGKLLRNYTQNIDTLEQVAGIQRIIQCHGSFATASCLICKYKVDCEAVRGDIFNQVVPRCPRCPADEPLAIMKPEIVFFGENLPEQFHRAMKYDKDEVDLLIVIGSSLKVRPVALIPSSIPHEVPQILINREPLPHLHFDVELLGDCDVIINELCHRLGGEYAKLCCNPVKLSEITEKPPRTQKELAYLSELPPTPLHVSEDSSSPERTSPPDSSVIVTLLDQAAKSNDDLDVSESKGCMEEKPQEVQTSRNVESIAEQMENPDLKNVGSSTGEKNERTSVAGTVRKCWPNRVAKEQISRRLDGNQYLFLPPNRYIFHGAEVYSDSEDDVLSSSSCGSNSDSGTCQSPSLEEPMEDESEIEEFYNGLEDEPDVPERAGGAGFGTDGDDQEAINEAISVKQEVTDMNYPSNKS
assay details: Trp mass spectrometry assay (SIRT1 activation)
Format: biochemical
assay context: percent maximum fold activation of SIRT1; Trp peptide substrate; read-out: Tryp % Fold Act
Provide the recorded Emax for the entries that follow.

Some compounds with recorded Emax:
compound	Emax
Cc1noc(C)c1-c1ccc2c(n1)N(C(=O)Nc1cnccn1)[C@H]1CCN2C1 [Example 413]	< 150%
Cc1cc(NC(=O)N2c3nc(N4CC[C@H](N(C)C)C4)ccc3N3CC[C@H]2C3)cc(C)n1 [Example 245]	≥ 150%
Cc1cncc(-c2ccc3c(n2)N(C(=O)Nc2ccccn2)[C@H]2CCCN3C2)c1 [Example 504]	≥ 150%

Attention now turns to another entry.
Ask: Record request: Emax value, item N#Cc1cc(-c2ccc3c(n2)N(C(=O)Nc2ccccn2)[C@H]2CCN3C2)ccc1F [Example 341]
Reply: ≥ 150%

* * *

target system: UniProtKB Q96EB6
assay details: Trp mass spectrometry assay (SIRT1 activation)
Type: biochemical
assay context: Trp mass spectrometry assay; percent maximum fold activation of SIRT1; read-out: Tryp % Fold Act
Experimental: Mass spectrometry based assays were used to identify modulators of SIRT1 activity. […] The peptide was labeled with the fluorophore 5TMR (excitation 540 nm/emission 580 nm) at the C-terminus. The sequence of the peptide substrate was based on p53 with several modifications. […] The Trp mass spectrometry assay was conducted as follows. […] Test compound was added at varying concentrations to this reaction mixture and the resulting reactions were monitored. […]
Provide the recorded Emax for the entries that follow.

Some compounds with recorded Emax:
input smiles	target system	Emax
Cn1ncc2cc(NC(=O)N3c4nc(-c5cccc(N6CCCC6)c5)ccc4N4CC[C@H]3C4)ccc21	UniProtKB Q96EB6	≥ 150%
C#CCNc1nccc(NC(=O)N2c3nc(-c4cccc(C5(C(F)(F)F)N=N5)c4)ccc3N3CC[C@H]2C3)n1	UniProtKB Q96EB6	≥ 150%
CC(C)(C)OC(=O)NCc1cnnn1-c1cccc(NC(=O)N2c3nc(-c4cccc(C(F)(F)F)c4)ccc3N3CC[C@H]2C3)c1	UniProtKB Q96EB6	≥ 150%
CC(C)(C)c1csc(NC(=O)N2c3nc(-c4cccc(C(F)(F)F)c4)ccc3N3CC[C@H]2C3)n1	UniProtKB Q96EB6	≥ 150%

State recorded Emax for all listed compounds.
1. O=C(Nc1ccccn1)N1c2nc(-c3cccc(F)c3)ccc2N2CC[C@H]1C2
2. O=C(Nc1cccc(-c2cnco2)c1)N1c2nc(-c3cccc(C(F)(F)F)c3)ccc2N2C[C@@H](O)[C@H]1C2
3. NCCCc1ccc(NC(=O)N2c3nc(-c4cccc(C(F)(F)F)c4)ccc3N3CC[C@H]2C3)cc1-c1cnco1

Reply:
≥ 150%
≥ 150%
≥ 150%

* * *

Provide the recorded Emax for the entries that follow.
target system: SIRT1 (Homo sapiens, UniProt Q96EB6)
assay details: Trp mass spectrometry assay (SIRT1 activation)
Type: biochemical
assay context: Trp mass spectrometry assay; percent maximum fold activation of SIRT1; read-out: Tryp % Fold Act

Some molecules with recorded Emax:
molecule	Emax
O=C(Nc1cncnc1)N1c2nc(-c3cccc(C(F)(F)F)c3)ccc2N2CC[C@H]1C2	≥ 150%
O=C(Nc1ccc(F)cn1)N1c2nc(C3CCCC(C(F)(F)F)C3)ccc2N2CC[C@H]1C2 (stereo partly shown)	≥ 150%
NCc1cnnn1-c1cccc(NC(=O)N2c3nc(-c4cccc(C(F)(F)F)c4)ccc3N3CC[C@H]2C3)c1	≥ 150%

Attention now turns to another entry.
Ask: # value lookup — system SIRT1 (Homo sapiens, UniProt Q96EB6), readout Emax, item O=C(Nc1ccc(F)cn1)N1c2nc(-c3cccc(OC[C@@H](O)CO)c3)ccc2N2CC[C@H]1C2
Reply: ≥ 150%

* * *

target system: SIRT1 (Homo sapiens, UniProt Q96EB6)
assay details: Trp mass spectrometry assay (SIRT1 activation)
Type: biochemical
assay context: concentration of test compound that results in 150% activation of SIRT1; Trp peptide substrate
readout type: Tryp AVG EC1.5 (μM)

Some molecules with recorded Tryp AVG EC1.5 (μM):
molecule	target system	Tryp AVG EC1.5 (μM)
O=C(Nc1cnccn1)N1c2nc(-c3cccc(N4CC[C@@H](F)C4)c3)ccc2N2CC[C@H]1C2	SIRT1 (Homo sapiens, UniProt Q96EB6)	B (EC1.5 1-25 μM)
COc1cc(NC(=O)N2c3nc(-c4cncc(Cl)c4)ccc3N3CCC2CC3)nc(OC)n1	SIRT1 (Homo sapiens, UniProt Q96EB6)	B (EC1.5 1-25 μM)
COc1cncc(NC(=O)N2c3nc(-c4ccnc(C)c4)ccc3N3CC[C@H]2C3)n1	SIRT1 (Homo sapiens, UniProt Q96EB6)	A (EC1.5<1 μM)
O=C(Nc1cnccn1)N1c2nc(-c3ccc(Cl)c(C(F)(F)F)c3)ccc2N2CC[C@H]1C2	SIRT1 (Homo sapiens, UniProt Q96EB6)	A (EC1.5<1 μM)
Cc1nc(NC(=O)N2c3nc(-c4cncc(Cl)c4)ccc3N3CCC[C@H]2C3)sc1C	SIRT1 (Homo sapiens, UniProt Q96EB6)	A (EC1.5<1 μM)
O=C(Nc1cccnc1)N1c2nc(-c3cc[nH]n3)ccc2N2CC[C@H]1C2	SIRT1 (Homo sapiens, UniProt Q96EB6)	B (EC1.5 1-25 μM)

State recorded Tryp AVG EC1.5 (μM) for all listed molecules.
1. N#Cc1cccc(-c2ccc3c(n2)N(C(=O)Nc2cncc(F)c2)[C@H]2CCCN3C2)c1
2. COc1cc(NC(=O)N2c3nc(-c4cncc(C)c4)ccc3N3CCC[C@H]2C3)ncn1 [EX-527, reference compound]

Reply:
A (EC1.5<1 μM)
A (EC1.5<1 μM)
